System: BT-549 breast
Assay: NCI-60 one-dose screen, 48 h
Conditions: 10 µM unless noted
Compounds without any hit were thinned out: in the full panel of roughly 83,000, 20% have a hit. Activity calls are given as the source filed them. Rule for the calls: active = growth percent below 10; inactive = the rest.
Please reply with one of these outcomes: active, inactive

CC(C)=CC(=O)N[C@H]1CC[C@]2(C)C3CC[C@]4(C)C(C(C)N(C)C)=CCC4C3CCC2[C@H]1O (some centres not stated) ... inactive
C/C(=C(\c1ccc(OCCN2CCCCCC2)cc1)c1ccc(OC(=O)c2ccccc2)cc1)c1ccc(Cl)cc1 ... inactive
Cc1ccc2nc(-c3ccc(C(=O)N/N=C/c4ccc([N+](=O)[O-])cc4)cc3)[nH]c2c1 ... inactive
Nc1nc(N)c2c(n1)NC(c1cccc(Nc3ccnc4cc(C(F)(F)F)ccc34)c1)CC(c1ccc3c(c1)OCO3)=N2 (configuration not stated) ... inactive
C[C@@H]1NC(=O)[C@H](Cc2ccccc2)N(Cc2cccnc2)C1=O ... inactive
O=C(Cc1ccc(/C=C/C(=O)c2ncc[nH]2)cc1)Nc1cc(F)c(F)c(F)c1 ... inactive
CSc1nc2ccc(C)cc2cc1/C=C1/C=C(c2ccccc2)NC1=O ... inactive
CC1=C(Cl)C(=O)c2cc(C)ccc2C1=O ... inactive
CCNC(=O)N1CCc2c(Br)c3c(c(OC)c2C1Cc1ccc(OC)cc1)OCO3 (configuration not stated) ... inactive
Cc1ccc(-c2csc(NC(=O)CSc3nc(N)cc(N)n3)n2)cc1 ... inactive

Dear colleague, could you share the recorded outcome for CC[C@@H](C(=O)[C@@H](C)[C@@H](O)[C@H](C)[C@@H]1O[C@@H]([C@@H](CC)C(=O)ONC(=O)c2ccccc2O)CC[C@@H]1C)C1O[C@]2(C=CC(=O)[C@]3(CC[C@@](C)([C@H]4CC[C@](O)(CC)[C@H](C)O4)O3)O2)[C@H](C)C[C@@H]1C (some centres not stated) when you have a moment?
inactive

Dear colleague, could you share the recorded outcome for CCOC(=O)c1c(C)nc2c(c1N)C(=O)C(=O)N2Cc1ccc(OC)cc1 when you have a moment?
inactive

Dear colleague, could you share the recorded outcome for CNC(=O)c1cc(Oc2ccc3c(c2)sc2nc(-c4ccc(NC(=O)[C@@H](NC(=O)OC)C(C)C)cc4)cn23)ccn1 when you have a moment?
inactive

Dear colleague, could you share the recorded outcome for Nc1c(Cl)cc(/C=C2\C=Cc3ccccc32)cc1Cl when you have a moment?
inactive

Dear colleague, could you share the recorded outcome for COc1ccc(-c2nc(SCC(=O)Nc3nc4ccc(C)cc4s3)[nH]c(=O)c2C#N)cc1OC when you have a moment?
inactive

Dear colleague, could you share the recorded outcome for COc1ccc(N/N=C/c2cn(-c3ccc(C(=O)O)cc3)nc2-c2cc3ccccc3oc2=O)cc1 when you have a moment?
inactive

Dear colleague, could you share the recorded outcome for Cc1nc(N/N=C/c2cn(-c3ccccc3)nc2-c2cc3ccccc3oc2=O)sc1N=Nc1ccccc1 when you have a moment?
inactive

Dear colleague, could you share the recorded outcome for CCn1cc(C(=O)N/N=C/c2ccccc2)c(=O)c2cc(F)c(N3CCNC(C)C3)c(F)c21 (configuration not stated) when you have a moment?
inactive

Dear colleague, could you share the recorded outcome for Cc1ccc(Cc2cnc(NC(=O)/C=C/c3ccc(C)o3)s2)cc1 when you have a moment?
inactive

---

Test system: NCI-H322M lung
Assay: NCI-60 one-dose screen, 48 h (100 = growth as untreated, 0 = no growth, -100 = all killed)
Conditions: 10 µM unless noted
Method: Growth inhibition of the NCI-H322M human Non-Small Cell Lung tumor cell line is measured as a screen for anti-cancer activity. Cells are grown in 96 well plates and exposed to the test compound for 48 hours. Compounds are tested at a single concentration, which is 10^-5 M for most compounds. The reported endpoint is percent growth (GI% or GIPRCNT), where numbers from 0 - 100% represent growth inhibition, and numbers from -100% - 0 represent cell death. […]
The panel holds about 83,000 compounds, 20% with a hit somewhere; the sample as a whole holds those more often. Calls of active or inactive are those of the source. How the source made its calls: active means growth percent below 10; inactive means the rest.
result-type: growth

For orientation, consider the following solved cases.
C=C1C(=O)O[C@@H]2C3C(=C(C)CC[C@@H]12)CC1O[C@]13C (stereo not given in full) ... 95.8% [6.75 µM] (inactive)
N#Cc1ccccc1-c1ccc(CN2C(=O)S/C(=C\c3ccc(Br)cc3)C2=O)cc1 ... 101% (inactive)
Fc1ccc(/C=C/[C@@H]2C[C@@H](F)CCO2)cc1 ... 82.1% (inactive)
COc1ccc(C(=O)/C=C/c2ccccc2)cc1S(N)(=O)=O ... 71.4% (inactive)
O=C1Nc2ccccc2/C1=N/N1C(=O)CN(CCCl)C1=O ... 101% (inactive)
CC(C)c1ccc2c(c1)CC[C@H]1[C@](C)(C(=O)OCC#CCN3CCCC3)CCC[C@]21C ... 93.8% (inactive)
Nc1nc(N(Cc2ccccc2)c2ccccc2)c2cn[nH]c2n1 ... 94.2% (inactive)
CCn1cc(C(=O)O)c(=O)c2cc(F)c(N3CCN(CC(=O)Nc4ccccc4)C(C)C3)c(F)c21 (stereo not given) ... 85.7% (inactive)
Cc1[nH]c(C(=O)Nc2ccccc2OC2CCN(CCN3CCOCC3)CC2)c(Cl)c1Cl ... 99.9% (inactive)
O=C(Nc1cccnc1Nc1ccc(Cl)cc1)c1cn(Cc2cccc(Oc3ccccc3)c2)nn1 ... 68.7% (inactive)

Recorded growth of COc1cc(-c2cc(-c3ccc(Nc4nc(Nc5ccc(Cl)cc5)nc(Nc5ccc(Cl)cc5)n4)cc3)no2)cc(OC)c1OC , please.
80.8% (inactive)

Recorded growth of NS(=O)(=O)c1ccc(C(=O)N=Nc2c(O)[nH]c3ccc(Cl)cc23)cc1 , please.
104% (inactive)

Recorded growth of O=C(NC1CCC(Br)CC1)C1CCCC(S(=O)(=O)NC2CCCCC2)C1 (stereo not given) , please.
41.9% [25 µM] (inactive)

Recorded growth of Nc1nc(C(=O)N/N=C/c2ccc(F)cc2)nn1-c1ccc(S(N)(=O)=O)cc1 , please.
91.1% (inactive)
